Assay System: Ste12 (UniProt P13574)
Sequence (P13574 whole entry): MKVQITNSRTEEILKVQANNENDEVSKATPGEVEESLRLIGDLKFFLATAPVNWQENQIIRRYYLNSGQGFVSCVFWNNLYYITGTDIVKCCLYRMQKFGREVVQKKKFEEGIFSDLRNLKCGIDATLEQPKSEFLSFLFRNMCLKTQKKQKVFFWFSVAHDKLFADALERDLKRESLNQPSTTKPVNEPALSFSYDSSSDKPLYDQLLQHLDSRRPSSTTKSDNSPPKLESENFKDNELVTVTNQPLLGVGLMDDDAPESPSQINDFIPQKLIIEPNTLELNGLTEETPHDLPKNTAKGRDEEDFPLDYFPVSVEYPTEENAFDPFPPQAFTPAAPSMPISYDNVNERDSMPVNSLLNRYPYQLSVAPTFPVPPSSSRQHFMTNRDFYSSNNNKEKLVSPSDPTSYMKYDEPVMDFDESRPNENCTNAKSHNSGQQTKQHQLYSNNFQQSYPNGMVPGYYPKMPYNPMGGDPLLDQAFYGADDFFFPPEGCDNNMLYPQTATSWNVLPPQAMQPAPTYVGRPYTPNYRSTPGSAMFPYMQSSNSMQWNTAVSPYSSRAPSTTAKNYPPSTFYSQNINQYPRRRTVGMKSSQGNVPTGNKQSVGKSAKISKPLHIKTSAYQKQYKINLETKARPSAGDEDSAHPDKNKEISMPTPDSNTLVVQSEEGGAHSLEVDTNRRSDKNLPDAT
Method Notes: PBM E-score (8-mer binding enrichment) (E-score (-0.5 to 0.5)); higher = stronger / more preferred TF binding
Measurement Conditions: protein concentration: 200 nM; construct: GST-DNA-binding domain
The full ranking holds about 33,000 sequences; the median of “E-score (-0.5 to 0.5)” is about -0.01, and the highest 2% start at about 0.26. Only a selection was taken, and the highest values are over-represented in it overall.
Observed Property: PBM E-score
The reply should be a number, written without any unit.

Per the records, this sequence ( `AAAAACAC` ) has PBM E-score equal to 0.233

Per the records, this sequence ( `TCCTAGCA` ) has PBM E-score equal to -0.0629

Per the records, this sequence ( `ACATCTCA` ) has PBM E-score equal to -0.0976

Per the records, this sequence ( `AAACGTTA` ) has PBM E-score equal to 0.0762

Per the records, this sequence ( `AAAATAAT` ) has PBM E-score equal to 0.293

Per the records, this sequence ( `GGCCCCAC` ) has PBM E-score equal to -0.181

Per the records, this sequence ( `GAAATATA` ) has PBM E-score equal to 0.284

Per the records, this sequence ( `CTTTAAAA` ) has PBM E-score equal to 0.266

Per the records, this sequence ( `ATGCCTCC` ) has PBM E-score equal to -0.0978

Per the records, this sequence ( `AACTCATG` ) has PBM E-score equal to 0.129

Per the records, this sequence ( `ACCTACCT` ) has PBM E-score equal to 0.0101

Per the records, this sequence ( `GGTTTAAA` ) has PBM E-score equal to 0.211

Per the records, this sequence ( `TAGATCGA` ) has PBM E-score equal to 0.0552

Per the records, this sequence ( `CATCCAGA` ) has PBM E-score equal to -0.00655

Per the records, this sequence ( `AATGATAT` ) has PBM E-score equal to 0.113

Per the records, this sequence ( `CAATACCC` ) has PBM E-score equal to -0.00702

Per the records, this sequence ( `AGCCTGTC` ) has PBM E-score equal to -0.181

Per the records, this sequence ( `GGTTAAAA` ) has PBM E-score equal to 0.256

Per the records, this sequence ( `ACGGCAAG` ) has PBM E-score equal to 0.0378

Per the records, this sequence ( `CATAGCGG` ) has PBM E-score equal to -0.207

Per the records, this sequence ( `CGCTCTTC` ) has PBM E-score equal to 0.00173

Per the records, this sequence ( `AATGATAC` ) has PBM E-score equal to 0.278

Per the records, this sequence ( `AATGATAA` ) has PBM E-score equal to 0.263

Per the records, this sequence ( `CTACCACC` ) has PBM E-score equal to -0.102

Per the records, this sequence ( `CTTTGCTA` ) has PBM E-score equal to 0.162

Per the records, this sequence ( `AGACTGCT` ) has PBM E-score equal to 0.0365

Per the records, this sequence ( `CCCGTTGC` ) has PBM E-score equal to -0.145

Per the records, this sequence ( `CCGCACCC` ) has PBM E-score equal to 0.222

Per the records, this sequence ( `CGAAAAGA` ) has PBM E-score equal to 0.242

Per the records, this sequence ( `GTTTAAAA` ) has PBM E-score equal to 0.3

Per the records, this sequence ( `GTTTAAAC` ) has PBM E-score equal to 0.214

Per the records, this sequence ( `AAAGAAAG` ) has PBM E-score equal to 0.19

Per the records, this sequence ( `CAGGCAAA` ) has PBM E-score equal to 0.0381

Per the records, this sequence ( `GTTTTAAA` ) has PBM E-score equal to 0.378

Per the records, this sequence ( `ACGGCAAA` ) has PBM E-score equal to 0.277

Per the records, this sequence ( `ATATTCAT` ) has PBM E-score equal to 0.227

Per the records, this sequence ( `CAAATACC` ) has PBM E-score equal to 0.185

Per the records, this sequence ( `CTATAAAA` ) has PBM E-score equal to 0.235

Per the records, this sequence ( `CAAATAAC` ) has PBM E-score equal to 0.283

Per the records, this sequence ( `ATATAAAA` ) has PBM E-score equal to 0.307

Per the records, this sequence ( `AGAAAAGC` ) has PBM E-score equal to 0.127

Per the records, this sequence ( `CCGCAGCG` ) has PBM E-score equal to -0.033

Per the records, this sequence ( `ACCGTTTC` ) has PBM E-score equal to 0.3

Per the records, this sequence ( `AGGTAGAG` ) has PBM E-score equal to -0.0159

Per the records, this sequence ( `CAAGAAAA` ) has PBM E-score equal to 0.24

Per the records, this sequence ( `ACGGCAAT` ) has PBM E-score equal to 0.0277

Per the records, this sequence ( `ACCGTTTA` ) has PBM E-score equal to 0.059

Per the records, this sequence ( `GCAATAAA` ) has PBM E-score equal to 0.279

Per the records, this sequence ( `GATAGAAC` ) has PBM E-score equal to 0.0461

Per the records, this sequence ( `CCCAGCGG` ) has PBM E-score equal to -0.192

Per the records, this sequence ( `CTCGATAC` ) has PBM E-score equal to 0.155

Per the records, this sequence ( `AAACGTGA` ) has PBM E-score equal to 0.312

Per the records, this sequence ( `AGTGCGGA` ) has PBM E-score equal to 0.0511

Per the records, this sequence ( `CAAATAAG` ) has PBM E-score equal to 0.0883

Per the records, this sequence ( `GAAATAAA` ) has PBM E-score equal to 0.282

Per the records, this sequence ( `AAAGAAAA` ) has PBM E-score equal to 0.351

Per the records, this sequence ( `CACTTCGC` ) has PBM E-score equal to 0.0953

Per the records, this sequence ( `AAACGTTG` ) has PBM E-score equal to 0.111

Per the records, this sequence ( `AATTGAAA` ) has PBM E-score equal to 0.412

Per the records, this sequence ( `CTTCACAA` ) has PBM E-score equal to -0.0638

Per the records, this sequence ( `GCAATAAC` ) has PBM E-score equal to 0.0195

Per the records, this sequence ( `AGCAGTTG` ) has PBM E-score equal to -0.126

Per the records, this sequence ( `AGCTGGGG` ) has PBM E-score equal to -0.136

Per the records, this sequence ( `AAGTGGGC` ) has PBM E-score equal to -0.0304

Per the records, this sequence ( `GGTTTTGA` ) has PBM E-score equal to 0.111

Per the records, this sequence ( `AGTTCGAC` ) has PBM E-score equal to -0.147

Per the records, this sequence ( `TATTGAAA` ) has PBM E-score equal to 0.304

Per the records, this sequence ( `GAGAGAAC` ) has PBM E-score equal to -0.0294

Per the records, this sequence ( `AGTGCAAA` ) has PBM E-score equal to 0.101
